- Species on record: Danio rerio
- Procedure details: Antiangiogenic activity in wild type zebrafish 24 hrs post fertilization embryos assessed as reduction in blood vessel growth at 2 uM treated for 48 hrs by alkaline phosphatase assay relative to control
- Format: functional
Calls of active or inactive are those of the source. The calls are words filed in the database; no cut-off is given here.
Readout type: Activity

Worked cases, answers included:
{"Substance smiles": "C/C(=C\\CO)CC/C=C(\\C)C(=O)O[C@@H]1[C@@H]2O[C@]2(CO)[C@H]2[C@H](O[C@@H]3O[C@H](CO)[C@@H](O)[C@H](O)[C@H]3O)OC=C[C@@]12O", "Activity": "inactive"}
{"Substance smiles": "O=C(/C=C/c1ccccc1)OC[C@H]1O[C@@H](O[C@@H]2OC=C[C@@]3(O)[C@H](O)[C@@H]4O[C@]4(CO)[C@@H]23)[C@H](O)[C@@H](O)[C@@H]1O", "Activity": "inactive"}
{"Substance smiles": "C/C(=C\\CO)CC/C=C(\\C)C(=O)O[C@@H]1[C@@H]2O[C@]2(C)[C@H]2[C@H](O[C@@H]3O[C@H](CO)[C@@H](O)[C@H](O)[C@H]3O)OC=C[C@@]12OC(=O)/C(C)=C/CC/C(C)=C/CO", "Activity": "inactive"}
{"Substance smiles": "C=C[C@@](C)(O)CC/C=C(\\C)C(=O)O[C@@]12C=CO[C@@H](O[C@@H]3O[C@H](CO)[C@@H](O)[C@H](O)[C@H]3O)[C@@H]1[C@@]1(C)O[C@H]1[C@H]2OC(=O)/C(C)=C/CC/C(C)=C/CO", "Activity": "inactive"}

We now examine a further compound.
In: Give a short answer stating reported Activity for C=C[C@@](C)(O)CC/C=C(\C)C(=O)O[C@@H]1O[C@H](CO)[C@@H](O)[C@H](O)[C@H]1O .
Out: 56.98%

Where these numbers come from: ChEMBL document CHEMBL4422695
